Hey, just so you know, these numbers are from the supplement of paper PMC12669032.

- System: Streptococcus salivarius
- ASSAY_NAME: growth AUC relative to DMSO control (median of replicates) (fraction); higher = more growth (less inhibition), active = hit call of the paper
- SETTINGS: 20 µM; 24 h
Reported values of growth AUC for individual entries

[Q] Any idea what growth AUC was measured for `O=C(OC1CCCCC1)c1ccccc1C(=O)OC1CCCCC1` ?
[A] 1 (inactive)

[Q] Please answer likewise for `COC(=O)N(C(=O)N1CO[C@@]2(C(=O)OC)Cc3cc(Cl)ccc3C2=N1)c1ccc(OC(F)(F)F)cc1`
[A] 0.873 (inactive)

[Q] Please answer likewise for `CC(Cl)(Cl)C(=O)O`
[A] 1.01 (inactive)

[Q] Please answer likewise for COC(=O)C(C)Oc1ccc(Oc2ccc(Cl)cc2Cl)cc1 (stereo not given)
[A] 0.984 (inactive)

[Q] Please answer likewise for `C#CCN1C(=O)COc2cc(F)c(N3C(=O)C4=C(CCCC4)C3=O)cc21`
[A] 0.974 (inactive)

====

- Test system: Collinsella aerofaciens
- ASSAY_NAME: growth AUC relative to DMSO control (median of replicates) (fraction); higher = more growth (less inhibition), active = hit call of the paper
- SETTINGS: 20 µM; 24 h
Reported values of growth AUC for individual entries
Give the value as a plain number.

[[record]]
molecule = "CN(C)C(=S)[S-].CN(C)C(=S)[S-].[Zn+2]"
target_desc = "Collinsella aerofaciens"
obs_value = 0.969


[Q] Any idea what growth AUC was measured for `Clc1cccc(Cl)c1Cl` ?
[A] 0.973

[Q] Please answer likewise for `Cc1c(N)cccc1N`
[A] 1.04

[Q] Please answer likewise for `COc1cc(OC)nc(NC(=O)NS(=O)(=O)c2ncccc2C(F)(F)F)n1`
[A] 0.972

[Q] Please answer likewise for `COC(=O)[C@@H](C)N(C(=O)Cc1ccccc1)c1c(C)cccc1C`
[A] 1.03

[Q] Please answer likewise for COP(=S)(NC(C)C)Oc1ccccc1C(=O)OC(C)C (stereo not drawn)
[A] 1.01

[Q] Please answer likewise for CCOC(=O)CC(SP(=S)(OC)OC)C(=O)OCC (stereo not drawn)
[A] 0.955

[Q] Please answer likewise for CCOC(=O)C(SP(=S)(OC)OC)c1ccccc1 (stereo not drawn)
[A] 1

[Q] Please answer likewise for `COC(=O)c1cc(Oc2ccc(Cl)cc2Cl)ccc1[N+](=O)[O-]`
[A] 0.901

[Q] Please answer likewise for `Cc1cc(Cl)ccc1N=CN(C)C.Cl`
[A] 0.978

[Q] Please answer likewise for `CNC(=O)Oc1cc(C)c(N(C)C)c(C)c1`
[A] 0.995

[Q] Please answer likewise for `O=C(NC(=O)c1c(F)cccc1F)Nc1ccc(Cl)c(Oc2ncc(C(F)(F)F)cc2Cl)c1`
[A] 1.08

[Q] Please answer likewise for `Nc1nc(N)[nH]c(=O)n1`
[A] 1.1

[Q] Please answer likewise for `O=C(NC(=O)c1c(F)cccc1F)Nc1ccc(Cl)cc1`
[A] 0.955

[Q] Please answer likewise for `CCS(=O)(=O)c1cccnc1S(=O)(=O)NC(=O)Nc1nc(OC)cc(OC)n1`
[A] 1

[Q] Please answer likewise for `CNC(=O)/C(=N/OC)c1ccccc1Oc1ccccc1`
[A] 0.998

[Q] Please answer likewise for `CO/C=C(/C(=O)OC)c1ccccc1Oc1cc(Oc2ccccc2C#N)ncn1`
[A] 0.994

[Q] Please answer likewise for `CCOP(=O)(OCC)OP(=O)(OCC)OCC`
[A] 0.966

[Q] Please answer likewise for `CCOC(=O)CCN(SN(C)C(=O)Oc1cccc2c1OC(C)(C)C2)C(C)C`
[A] 0.978

====

- Tested on: Bacteroides clarus
- ASSAY_NAME: growth AUC relative to DMSO control (median of replicates) (fraction); higher = more growth (less inhibition), active = hit call of the paper
- SETTINGS: 20 µM; 24 h
Reported values of growth AUC for individual entries

[[record]]
compound = "CCOP(=O)(NC(C)C)Oc1ccc(S(C)(=O)=O)c(C)c1 (stereo not drawn)"
obs_value = "1.04 (inactive)"

[[record]]
compound = "CC1(C)C(/C=C(\\Cl)C(F)(F)F)C1C(=O)OC(C#N)c1cccc(Oc2ccccc2)c1 (stereo not drawn)"
obs_value = "1.02 (inactive)"

[[record]]
compound = "c1ccc(-c2ccccc2)cc1"
obs_value = "1.03 (inactive)"

[[record]]
compound = "CC1(C)CON(Cc2ccccc2Cl)C1=O"
obs_value = "1.01 (inactive)"

[[record]]
compound = "CCNc1nc(NC(C)C)nc(OC)n1"
obs_value = "1.02 (inactive)"


Then there is this compound:
[Q] Any idea what growth AUC was measured for `CC1=C(C(=O)Nc2ccccc2)S(=O)(=O)CCO1` ?
[A] 0.976 (inactive)

====

- Test system: Escherichia coli ED1a
- ASSAY_NAME: growth AUC relative to DMSO control (median of replicates) (fraction); higher = more growth (less inhibition), active = hit call of the paper
- SETTINGS: 20 µM; 24 h
Reported values of growth AUC for individual entries
Give the value as a plain number.

Some compounds with recorded growth AUC:
[[record]]
compound = "O=C(O)CCCOc1ccc(Cl)cc1Cl"
obs_value = 0.984

[[record]]
compound = "c1coc(-c2nc3ccccc3[nH]2)c1"
obs_value = 1.01


[Q] Any idea what growth AUC was measured for CNC(=O)O/N=C/C(C)(C)S(C)=O (configuration not stated) ?
[A] 0.993

[Q] Please answer likewise for `Oc1cc(Cl)c(Cl)cc1Cl`
[A] 0.978

====

- System: Escherichia coli IAI1
- ASSAY_NAME: growth AUC relative to DMSO control (median of replicates) (fraction); higher = more growth (less inhibition), active = hit call of the paper
- SETTINGS: 20 µM; 24 h
Reported values of growth AUC for individual entries
Give the value as a plain number.

Some compounds with recorded growth AUC:
[[record]]
compound = "CCOC(=O)CCN(Cc1ccccc1)SN(C)C(=O)O/N=C(/C)SC"
target_desc = "Escherichia coli IAI1"
obs_value = 0.988

[[record]]
compound = "COP(=O)(OC)OC1=C(Cl)C2C=CCC12 (stereo unspecified)"
target_desc = "Escherichia coli IAI1"
obs_value = 1.03

[[record]]
compound = "Oc1cccc2cccnc12"
target_desc = "Escherichia coli IAI1"
obs_value = 0.982

[[record]]
compound = "O=c1oc2ccccc2c(O)c1C1CC(c2ccc(-c3ccc(Br)cc3)cc2)Cc2ccccc21 (stereo unspecified)"
target_desc = "Escherichia coli IAI1"
obs_value = 1

[[record]]
compound = "COCc1c(F)c(F)c(COC(=O)C2C(C=C(C)C)C2(C)C)c(F)c1F (stereo unspecified)"
target_desc = "Escherichia coli IAI1"
obs_value = 1.02


Then there is this compound:
[Q] Any idea what growth AUC was measured for `CC#Cc1cc(C)nc(Nc2ccccc2)n1` ?
[A] 0.973

====

- Test system: Lactobacillus paracasei
- ASSAY_NAME: growth AUC relative to DMSO control (median of replicates) (fraction); higher = more growth (less inhibition), active = hit call of the paper
- SETTINGS: 20 µM; 24 h
# label = rule met if growth AUC >= 1 else rule not met

Recorded results for 10 molecules are shown here.
[[record]]
molecule = "CC(C)(C)C(O)C(Oc1ccc(Cl)cc1)n1cncn1 (stereo not given)"
qualitative_label = "rule met"

[[record]]
molecule = "CCC(CC)Nc1c([N+](=O)[O-])cc(C)c(C)c1[N+](=O)[O-]"
qualitative_label = "rule not met"

[[record]]
molecule = "CC(C)=CC1C(C(=O)OCc2coc(Cc3ccccc3)c2)C1(C)C (stereo not given)"
qualitative_label = "rule met"

[[record]]
molecule = "CC(C)Nc1nc(Cl)nc(NC(C)C)n1"
qualitative_label = "rule met"

[[record]]
molecule = "N#Cc1c(Cl)c(Cl)c(Cl)c(C#N)c1Cl"
qualitative_label = "rule not met"

[[record]]
molecule = "COc1cc(C)c(C(=O)c2c(OC)ccc(Br)c2C)c(OC)c1OC"
qualitative_label = "rule met"

[[record]]
molecule = "C[C@@H](Oc1ccc(Cl)cc1Cl)C(=O)O"
qualitative_label = "rule not met"

[[record]]
molecule = "CCOP(=S)(OCC)SCS(=O)C(C)(C)C (stereo not given)"
qualitative_label = "rule not met"

[[record]]
molecule = "CC(C)N1C(=O)c2ccccc2NS1(=O)=O"
qualitative_label = "rule not met"

[[record]]
molecule = "CC(Oc1ccc(Oc2ccc(C(F)(F)F)cn2)cc1)C(=O)O (stereo not given)"
qualitative_label = "rule not met"


Moving on to the next molecule.
[Q] Does `C#CC(C)(C)NC(=O)c1cc(Cl)cc(Cl)c1` have a reported growth AUC of at least 1?
[A] rule met

====

- System: Bacteroides dorei
- ASSAY_NAME: growth AUC relative to DMSO control (median of replicates) (fraction); higher = more growth (less inhibition), active = hit call of the paper
- SETTINGS: 20 µM; 24 h
# label = Satisfied if growth AUC >= 1 else Not satisfied

Recorded results for 3 compounds are shown here.
[[record]]
compound = "O=c1oc2ccccc2c(O)c1C1CC(c2ccc(-c3ccc(Br)cc3)cc2)Cc2ccccc21 (stereo not drawn)"
target_desc = "Bacteroides dorei"
qualitative_label = "Not satisfied"

[[record]]
compound = "Nc1cc(Cl)cc(C(=O)O)c1Cl"
target_desc = "Bacteroides dorei"
qualitative_label = "Satisfied"

[[record]]
compound = "Cc1cc(Cl)ccc1OCC(=O)O"
target_desc = "Bacteroides dorei"
qualitative_label = "Not satisfied"


[Q] Does ClC1=C(Cl)C2(Cl)C3COCC3C1(Cl)C2(Cl)Cl (stereo not drawn) have a reported growth AUC of at least 1?
[A] Not satisfied

[Q] Please answer likewise for CC1CNC(=S)N1 (stereo not drawn)
[A] Satisfied

[Q] Please answer likewise for CC[C@H]1CCCC(O[C@H]2CC[C@H](N(C)C)[C@@H](C)O2)[C@@H](C)C(=O)C2=C[C@@H]3[C@@H](C=C(C)[C@@H]4C[C@@H](O[C@@H]5O[C@@H](C)[C@H](OC)[C@@H](OC)[C@H]5OC)C[C@@H]34)[C@@H]2CC(=O)O1.CC[C@H]1CCCC(O[C@H]2CC[C@H](N(C)C)[C@@H](C)O2)[C@@H](C)C(=O)C2=C[C@@H]3[C@@H](C=C[C@@H]4C[C@@H](O[C@@H]5O[C@@H](C)[C@H](OC)[C@@H](OC)[C@H]5OC)C[C@@H]34)[C@@H]2CC(=O)O1 (stereo partly drawn)
[A] Satisfied
